Test system: BDF1 mice, B16 melanoma ip, median survival T/C
Test: NCI In Vivo Anticancer Drug Screen. Data for tumor model B16 Melanoma (intraperitoneal) in B6D2F1 (BDF1) mice
Conditions: endpoint: median survival time; dose: 100.0 mg/kg/injection; schedule: Q04DX003 (ip); vehicle: saline
Toxic doses and inconclusive results are not listed. The calls were made as follows: active = survival T/C of 150% or more; inactive = T/C below 125% in these data.
Classes used: active, inactive

INSERT INTO measurements (compound, assaytarget, assignedcategory) VALUES
  ('CC1(C)N=C(N)N=C(N)N1c1ccc(OCC(=O)Nc2ccc(S(=O)(=O)F)cc2)c(Cl)c1', 'BDF1 mice, B16 melanoma ip, median survival T/C', 'inactive'),
  ('C=CCOCC(O)CO (centres undefined)', 'BDF1 mice, B16 melanoma ip, median survival T/C', 'inactive'),
  ('COC(=O)C(C)CN1CCCCC1 (centres undefined)', 'BDF1 mice, B16 melanoma ip, median survival T/C', 'inactive'),
  ('C[NH-].C[NH-].O=C(O)CC(=O)O.[Pt+2]', 'BDF1 mice, B16 melanoma ip, median survival T/C', 'active'),
  ('CC(C)C(O)(C(=O)NN)C(=O)NN', 'BDF1 mice, B16 melanoma ip, median survival T/C', 'inactive'),
  ('COc1ccc2cc1Oc1ccc(cc1)C[C@H]1c3cc(c(OC)cc3CCN1C)Oc1c(OC)c(OC)cc3c1[C@H](C2)N(C)CC3', 'BDF1 mice, B16 melanoma ip, median survival T/C', 'inactive'),
  ('CC(NC(=O)C(F)(F)F)C(=O)O (centres undefined)', 'BDF1 mice, B16 melanoma ip, median survival T/C', 'inactive'),
  ('COC(=O)C(CCCN=C(N)N)NC(=O)OCc1ccccc1 (centres undefined)', 'BDF1 mice, B16 melanoma ip, median survival T/C', 'inactive'),
  ('CN(C)c1ccc(C(=O)c2ccc(N(C)C)cc2)cc1', 'BDF1 mice, B16 melanoma ip, median survival T/C', 'inactive');
